Form field: AUC(0-t) (one value per entry).
Experiment: Pharmacokinetic study in rat plasma after oral administration of QJYQ (UHPLC-sMRM)
Type: in vivo, Sprague-Dawley rats
Details: male, Sprague-Dawley; rat plasma, oral QJYQ 3.15 g/kg, n = 8, mean ± SD; read-out: AUC(0-t)
Write the value in ng·h/mL as a bare number.

Below, each entry is followed by its recorded AUC(0-t) result.
compound="O=C(O)C=Cc1ccc(O)cc1 [p-Coumaric acid]" measurement_type=AUC(0-t) measured_value=381
compound="CC1(C)[C@@H](O[C@H]2O[C@H](C(=O)O)[C@@H](O)[C@H](O)[C@H]2O[C@@H]2O[C@H](C(=O)O)[C@@H](O)[C@H](O)[C@H]2O)CC[C@]2(C)[C@H]3C(=O)C=C4[C@@H]5C[C@@](C)(C(=O)O)CC[C@]5(C)CC[C@@]4(C)[C@]3(C)CC[C@@H]12 [glycyrrhizic acid]" measurement_type=AUC(0-t) measured_value=1110
compound="O=C(O)[C@H]1O[C@@H](Oc2cc3oc(-c4ccccc4)cc(=O)c3c(O)c2O)[C@H](O)[C@@H](O)[C@@H]1O [baicalin]" measurement_type=AUC(0-t) measured_value=49300

Short answer for COc1ccc(/C=C/C(=O)O)cc1O [isoferulic acid] : AUC(0-t) was 347

The recorded AUC(0-t) for O=C(O)c1ccc(O)c(O)c1 [protocatechuic acid] is 40.8

Looking up COc1c(O)cc(O)c2c(=O)cc(-c3ccccc3)oc12 [wogonin] , I see its AUC(0-t) listed as 288

* * *

Assay: Pharmacokinetic study in rat plasma after oral administration of QJYQ (UHPLC-sMRM)
Assay type: in vivo, Sprague-Dawley rats
Conditions: male, Sprague-Dawley, rat, in vivo, po, 3.15 g/kg
measurement type: MRT inf (h)
Return type: number; implicit unit h.

Record summary for O=C1C[C@@H](c2ccc(O[C@@H]3O[C@H](CO)[C@@H](O)[C@H](O)[C@H]3O)cc2)Oc2cc(O)ccc21 : reported MRT inf = 6.8

* * *

Experiment: Stability of the working solution (4°C for 1 month)
Format: physicochemical
Details: 100 ng/mL
measurement type: Working solution Accuracy (%)
Express it in %; write the number only.

The compound identified as C[C@@H]1O[C@@H](Oc2c(-c3ccc(O)c(O)c3)oc3cc(O)cc(O)c3c2=O)[C@H](O)[C@H](O)[C@H]1O registered its Working solution Accuracy (%) at 90.4

Reported Working solution Accuracy (%) of CC(C)(O[C@@H]1O[C@H](CO)[C@@H](O)[C@H](O)[C@H]1O)[C@@H]1CC[C@](O)(CO)[C@H]2CC(=O)[C@@](C)(O)[C@@H]2C1 [atractyloside A] : 104.0

Item: O=C(/C=C/c1ccc(O)c(O)c1)O[C@H]1[C@H](O)C[C@](O)(C(=O)O)C[C@H]1O | Working solution Accuracy (%): 94.6

Noted for COc1ccc(-c2coc3cc(O[C@@H]4O[C@H](CO)[C@@H](O)[C@H](O)[C@H]4O)ccc3c2=O)cc1 : its Working solution Accuracy (%) reads 104.0

For this compound ( O.Oc1cc(O)c2c(c1)O[C@H](c1ccc(O)c(O)c1)[C@@H](O)C2 ), measured Working solution Accuracy (%) is 97.4

The compound listed as O=C(O)[C@H]1O[C@@H](Oc2cc(O)c3c(=O)cc(-c4ccc(O)cc4)oc3c2)[C@H](O)[C@@H](O)[C@@H]1O [apigenin-7-O-glucuronide] has a reported Working solution Accuracy (%) of 88.5

The compound listed as COc1ccc([C@@H]2CC(=O)c3c(O)cc(O[C@@H]4O[C@H](CO[C@@H]5O[C@@H](C)[C@H](O)[C@@H](O)[C@H]5O)[C@@H](O)[C@H](O)[C@H]4O)cc3O2)cc1O shows Working solution Accuracy (%) equal to 102.0

Reported Working solution Accuracy (%) of O=C1C[C@@H](c2ccc(O[C@@H]3O[C@H](CO)[C@@H](O)[C@H](O)[C@H]3O)cc2)Oc2cc(O)ccc21 : 100.0

Notebook: O=c1c(O[C@@H]2O[C@H](CO)[C@H](O)[C@H](O)[C@H]2O)c(-c2ccc(O)c(O)c2)oc2cc(O)cc(O)c12 [hyperoside] , Working solution Accuracy (%) read as 91.2

// recorded Working solution Accuracy (%) for COC(=O)C1=CO[C@@H](O[C@@H]2O[C@H](CO)[C@@H](O)[C@H](O)[C@H]2O)[C@H]2[C@@H]1C(=O)C[C@@H]2C : 86.2

The reported value for COc1cc(/C=C/C(=O)O)ccc1O in terms of Working solution Accuracy (%) is 88.3

For O=C1C[C@@H](c2ccc(O)cc2)Oc2cc(O)cc(O)c21 the compound record lists Working solution Accuracy (%) as 85.6

# Working solution Accuracy (%) (compound: CC(C)=CCC[C@](C)(O)[C@H]1CC[C@]2(C)[C@@H]1[C@H](O)C[C@@H]1[C@@]3(C)CC[C@H](O)C(C)(C)[C@@H]3[C@@H](O[C@@H]3O[C@H](CO)[C@@H](O)[C@H](O)[C@H]3O)C[C@]12C [ginsenoside Rh1] ) is 95.1

* * *

Assay: Stability of analytes in rat plasma (auto-sampler, freeze-thaw, room temperature, long-term)
Details: 12.5 ng/mL, autosampler 24 h
measurement type: Autosampler for 24 h Accuracy (%)
Write the value in % as a bare number.

These solved cases illustrate the format of a correct answer.
molecule="O=C(O)c1ccc(O)c(O)c1 [protocatechuic acid]" measurement_type="Autosampler for 24 h Accuracy (%)" measured_value=86.0
molecule="O=C(/C=C/c1ccc(O)c(O)c1)O[C@@H]1C[C@](O)(C(=O)O)C[C@@H](O)[C@H]1O [chlorogenic acid]" measurement_type="Autosampler for 24 h Accuracy (%)" measured_value=94.6
molecule="CC(C)=CCC[C@](C)(O)[C@H]1CC[C@]2(C)[C@@H]1[C@H](O)C[C@@H]1[C@@]3(C)CC[C@H](O)C(C)(C)[C@@H]3[C@@H](O[C@@H]3O[C@H](CO)[C@@H](O)[C@H](O)[C@H]3O[C@@H]3O[C@H](CO)[C@@H](O)[C@H](O)[C@H]3O)C[C@]12C [ginsenoside Rf]" measurement_type="Autosampler for 24 h Accuracy (%)" measured_value=112.0
molecule="O=c1c(O[C@@H]2O[C@H](CO)[C@H](O)[C@H](O)[C@H]2O)c(-c2ccc(O)c(O)c2)oc2cc(O)cc(O)c12 [hyperoside]" measurement_type="Autosampler for 24 h Accuracy (%)" measured_value=101.0

Summary for this molecule, C[C@@]12C[C@@]3(O)O[C@@H](O1)[C@]1(COC(=O)c4ccccc4)[C@H]3C[C@@]12O[C@@H]1O[C@H](CO)[C@@H](O)[C@H](O)[C@H]1O [paeoniflorin] : Autosampler for 24 h Accuracy (%) is 86.8

According to the records, this molecule O=C(O)C=Cc1ccc(O)cc1 [p-Coumaric acid] displays Autosampler for 24 h Accuracy (%) of 102.0

In plain terms, O=C1C[C@@H](c2ccc(O[C@@H]3O[C@H](CO)[C@@H](O)[C@H](O)[C@H]3O)cc2)Oc2cc(O)ccc21 [liquiritin] has a documented Autosampler for 24 h Accuracy (%) of 108.0

Query C[C@@H]1O[C@@H](Oc2c(-c3ccc(O)c(O)c3)oc3cc(O)cc(O)c3c2=O)[C@H](O)[C@H](O)[C@H]1O [quercitrin] yields Autosampler for 24 h Accuracy (%) of 94.7

The measured Autosampler for 24 h Accuracy (%) associated with O=C(/C=C/c1ccc(O[C@@H]2O[C@H](CO)[C@@H](O)[C@H](O)[C@H]2O)cc1)c1ccc(O)cc1O [isoliquiritin] reads 108.0

According to the records, this molecule COC(=O)C1=CO[C@@H](O[C@@H]2O[C@H](CO)[C@@H](O)[C@H](O)[C@H]2O)[C@H]2[C@@H]1C(=O)C[C@@H]2C [verbenalin] displays Autosampler for 24 h Accuracy (%) of 84.9

Value of measured Autosampler for 24 h Accuracy (%) for the entry COc1c2c(cc3oc(CO)cc(=O)c13)O[C@H](C(C)(C)O)C2 [cimifugin] : 91.1

# Autosampler for 24 h Accuracy (%) of O=C(O)[C@H]1O[C@@H](Oc2cc(O)c3c(=O)cc(-c4ccc(O)cc4)oc3c2)[C@H](O)[C@@H](O)[C@@H]1O [apigenin-7-O-glucuronide] = 93.2

C[C@]1(OC(=O)/C=C/c2ccccc2)C[C@@H](O)[C@]2(O)C=CO[C@@H](O[C@@H]3O[C@H](CO)[C@@H](O)[C@H](O)[C@H]3O)[C@@H]21 [harpagoside] yielded Autosampler for 24 h Accuracy (%) of 101.0

* * *

// reported −80°C for 1month Accuracy (%) per item
Assay: Stability of analytes in rat plasma (auto-sampler, freeze-thaw, room temperature, long-term)
Settings: 12.5 ng/mL, −80°C 1 month
Express your answer in %, writing the number without its unit.

Answered cases to consult:
smiles_representation=COC(=O)C1=CO[C@@H](O[C@@H]2O[C@H](CO)[C@@H](O)[C@H](O)[C@H]2O)[C@H]2[C@@H]1C(=O)C[C@@H]2C measurement_type="−80°C for 1month Accuracy (%)" measured_value=89.1
smiles_representation=O=c1cc(-c2ccc(O)cc2)oc2c([C@@H]3O[C@H](CO)[C@@H](O)[C@H](O)[C@H]3O)c(O)cc(O)c12 measurement_type="−80°C for 1month Accuracy (%)" measured_value=106.0

Recorded result, O=C(O)C=Cc1ccc(O)cc1 , −80°C for 1month Accuracy (%): 85.1

So, C[C@@]12C[C@@]3(O)O[C@@H](O1)[C@]1(COC(=O)c4ccccc4)[C@H]3C[C@@]12O[C@@H]1O[C@H](CO)[C@@H](O)[C@H](O)[C@H]1O ? Its −80°C for 1month Accuracy (%) was 97.6
